Source listed as paper PMC10663500.

- target.or.test.system: T1, human programmed cell death protein 1 (hPD-1) C93S (aa 24-167) (Homo sapiens, UniProt Q15116, C93S)
- T1 construct: made as a fusion with a TEV site and human Fc; the Fc was cut off with TEV protease; source: Expi293F, purified (Protein A, TEV cleavage of Fc, SEC; monomer fractions); not shown: Fc (human), C-terminal, cleaved
- T1 sequence (Q15116 24-167 C93S): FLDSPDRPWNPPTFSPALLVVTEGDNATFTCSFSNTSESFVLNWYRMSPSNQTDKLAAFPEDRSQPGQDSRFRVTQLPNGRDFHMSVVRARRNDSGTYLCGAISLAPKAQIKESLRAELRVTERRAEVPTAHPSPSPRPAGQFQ
- test.description: SPR; Carterra LSA; Fab from the ammonium sulfate precipitate of the culture supernatant immobilised on a NiHC200M chip; hPD-1 (1-1024 nM) or mPD-1-Fc (4-1024 nM) as analyte, fourfold dilution series, no regeneration; HBS-EP pH 7.4, 25 °C; medians over the spots of a construct, KD = koff/kon
- condition.label: one partner purified
metric.name: koff (s⁻¹)
Numbers only, in s⁻¹.

binder: toripalimab Fab H.F64Y (Fab, V domains shown, heavy chain of Sm3 with this change; numbers count from the chain's first residue; as the light chain of Sm3; source: Brevibacillus, culture supernatant (ammonium sulfate precipitate); not shown: 6xHis, C-terminal, kept; 6xHN, C-terminal, kept) VH: QGQLVQSGAEVKKPGASVKVSCKASGYTFTDYEMHWVRQAPIHGLEWIGVIESETGGTAYNQKYKGRVTITADKSTSTAYMELSSLRSEDTAVYYCAREGITTVATTYYWYFDVWGQGTTVTVSS VL: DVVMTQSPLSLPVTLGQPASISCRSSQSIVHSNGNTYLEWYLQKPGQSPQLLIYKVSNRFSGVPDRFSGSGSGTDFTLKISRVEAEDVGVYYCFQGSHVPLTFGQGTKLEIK
metric.name: koff
numeric.readout: 3.98e-05
//
binder: toripalimab Fab L.S61A (Fab, V domains shown, as the heavy chain of Sm3; light chain of Sm3 with this change; numbers count from the chain's first residue; source: Brevibacillus, culture supernatant (ammonium sulfate precipitate); not shown: 6xHis, C-terminal, kept; 6xHN, C-terminal, kept) VH: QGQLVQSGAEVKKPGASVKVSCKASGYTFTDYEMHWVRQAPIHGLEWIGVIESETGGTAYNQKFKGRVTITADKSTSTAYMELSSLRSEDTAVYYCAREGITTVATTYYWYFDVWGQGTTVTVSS VL: DVVMTQSPLSLPVTLGQPASISCRSSQSIVHSNGNTYLEWYLQKPGQSPQLLIYKVSNRFAGVPDRFSGSGSGTDFTLKISRVEAEDVGVYYCFQGSHVPLTFGQGTKLEIK
metric.name: koff
numeric.readout: 2.72e-05

Proceed to the following item.
Ask | // koff lookup, key: toripalimab Fab H.F112A (Fab, V domains shown, heavy chain of Sm3 with this change; numbers count from the chain's first residue; as the light chain of Sm3; source: Brevibacillus, culture supernatant (ammonium sulfate precipitate); not shown: 6xHis, C-terminal, kept; 6xHN, C-terminal, kept) VH: QGQLVQSGAEVKKPGASVKVSCKASGYTFTDYEMHWVRQAPIHGLEWIGVIESETGGTAYNQKFKGRVTITADKSTSTAYMELSSLRSEDTAVYYCAREGITTVATTYYWYADVWGQGTTVTVSS VL: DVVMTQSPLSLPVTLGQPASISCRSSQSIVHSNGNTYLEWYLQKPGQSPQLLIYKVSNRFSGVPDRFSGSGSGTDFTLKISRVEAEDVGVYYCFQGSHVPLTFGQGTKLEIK
Reply | 2.72e-05
